The values you see were collected from ChEMBL document CHEMBL3352087.

Would you kindly list Ratio IC50 for each of these compounds?
Test system: CHO
assay-explanation: Ratio of IC50 for cathepsin D purified from human spleen to IC50 for purified recombinant human BACE1 expressed in CHO cells
One number for each entry.

For every item in the list below, what is its measured Ratio IC50?
1. CN1C(=O)[C@]2(N=C1N)c1cc(-c3cccnc3F)ccc1O[C@@]1(C)CCCO[C@@H]12 (relative stereo)
2. CN1C(=O)[C@]2(N=C1N)c1cc(-c3cccnc3F)ccc1O[C@]1(C)CCCO[C@H]12 (relative stereo)
3. C[C@]12CCCO[C@@H]1[C@]1(CSC(N)=N1)c1cc(-c3cccc(C#N)c3)ccc1O2 (relative stereo)

Output:
[510, 69, 680]

---

Can you tell me Cp(f) for the items I'm about to list?
Tested on: Plasma
assay-explanation: Free plasma concentration in CD-1 mouse at 3 mg/kg, iv and 10 mg/kg, po measured at 1 hr post dose
Assay type: ADME, organism-based
experimental-setup: in vivo
Numbers only, in nM.

Could you tell me Cp(f) for each of these molecules? They are listed below.
1. CN1C(=O)[C@]2(N=C1N)c1cc(-c3cccnc3F)ccc1O[C@H]1CCOC[C@@H]12
2. C[C@]12CCCO[C@@H]1[C@]1(COC(N)=N1)c1cc(-c3cccc(C#N)c3)ccc1O2 (racemic)
3. CN1C(=O)[C@]2(N=C1N)c1cc(-c3cccnc3F)ccc1O[C@H]1CCCO[C@@H]12 (relative stereo)
4. C[C@]12CCCO[C@@H]1[C@]1(COC(N)=N1)c1cc(-c3cccnc3F)ccc1O2 (relative stereo)

Output:
[320, 54, 120, 37]

---

assay-explanation: Drug level in Sprague-Dawley rat CSF at 60 mg/kg, po measured at 3 hrs post dose
Assay type: ADME, organism-based, Cerebrospinal fluid
Design: dose 60 mg/kg, route oral
experimental-setup: read-out: Drug uptake
property: concentration at 3 h (nM)
One number for each entry, in nM.

Task: Fill blank: measured concentration at 3 h of the compound C[C@]12CCCO[C@@H]1[C@]1(COC(N)=N1)c1cc(-c3cccc(C#N)c3)ccc1O2 is ____.
Output: 150

---

assay-explanation: Solubility of the compound at pH 7.2
Assay type: physicochemical
experimental-setup: buffer
property: solubility (µg/mL)
Numbers only, in µg/mL.

Task: Any idea what solubility was measured for C[C@]12CCCO[C@@H]1[C@]1(COC(N)=N1)c1cc(-c3cccc(C#N)c3)ccc1O2 ?
Output: 57

---

measured-target: Beta-secretase 1 (Homo sapiens)
Sequence (P56817 whole entry): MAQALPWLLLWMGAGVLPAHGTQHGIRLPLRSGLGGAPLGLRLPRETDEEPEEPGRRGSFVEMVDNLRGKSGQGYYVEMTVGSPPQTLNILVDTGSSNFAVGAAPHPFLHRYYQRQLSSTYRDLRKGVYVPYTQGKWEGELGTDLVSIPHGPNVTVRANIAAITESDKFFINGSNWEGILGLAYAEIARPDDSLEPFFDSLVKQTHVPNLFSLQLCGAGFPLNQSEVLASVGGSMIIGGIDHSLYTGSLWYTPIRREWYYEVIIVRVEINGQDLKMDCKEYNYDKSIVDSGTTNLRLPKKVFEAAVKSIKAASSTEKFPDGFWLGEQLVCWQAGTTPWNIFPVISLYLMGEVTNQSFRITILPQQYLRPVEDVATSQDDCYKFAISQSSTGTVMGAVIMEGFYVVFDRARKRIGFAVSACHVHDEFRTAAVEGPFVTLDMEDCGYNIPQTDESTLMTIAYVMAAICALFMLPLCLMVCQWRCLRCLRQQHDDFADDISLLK
assay-explanation: Inhibition of purified recombinant human BACE1 expressed in CHO cells assessed as uncleaved biotinylated sAPP after 2 hrs by HTRF assay
I'd be grateful if you could share measured IC50 for these entries.
One number for each entry, in nM.

These solved cases illustrate the format of a correct answer.
Task: I am curious: what IC50 value has been reported for C[C@]12CCCO[C@@H]1[C@]1(COC(N)=N1)c1cc(-c3cncc(Cl)c3)ccc1O2 (racemic) ?
Output: 52

Task: Form field: reported IC50 of C[C@@]12CCCO[C@H]1[C@]1(COC(N)=N1)c1cc(-c3cccnc3F)ccc1O2 (relative stereo)
Output: 210

Task: Returns the measured IC50 for the input compound. Input: C[C@]12CCCO[C@@H]1[C@]1(COC(N)=N1)c1cc(-c3cc(F)cc(Cl)c3)ccc1O2 (relative stereo)
Output: 55

Task: Item C[C@]12CCCO[C@@H]1[C@]1(CSC(N)=N1)c1cc(-c3cccnc3F)ccc1O2 (relative stereo) has what recorded IC50?
Output: 27

Task: # input compound: C[C@]12CCCO[C@@H]1[C@]1(COC(N)=N1)c1cc(-c3cncnc3)ccc1O2 (single isomer, unassigned) ; wanted: its IC50
Output: 89

Task: What does the record list as IC50 for CN1C(=O)[C@]2(N=C1N)c1cc(-c3cccnc3F)ccc1O[C@]1(C)CCCO[C@H]12 (relative stereo) ?
Output: 26

Task: Suppose we examine the compound CN1C(=O)[C@]2(N=C1N)c1cc(-c3cccnc3F)ccc1O[C@@H]1CCCO[C@H]12 (relative stereo) ; what IC50 value has been reported?
Output: 700

Task: Recorded IC50 of C[C@]12CCCO[C@@H]1[C@]1(CSC(N)=N1)c1cc(-c3cc(F)cc(Cl)c3)ccc1O2 (relative stereo) , please.
Output: 41

--- query ---
Task: Report IC50 for CN1C(=O)[C@]2(N=C1N)c1cc(-c3cccnc3F)ccc1O[C@@]1(C)CCCO[C@@H]12 (relative stereo) please.
Output: 13
